# measured.target: CD73 on U138 neuroglioma cells (Homo sapiens)
# Construct: U138 neuroglioma cells, which express CD73 on their surface; endogenous in cells; host or cells: U138 neuroglioma cells (ATCC)
# Sequence (P21589 27-549): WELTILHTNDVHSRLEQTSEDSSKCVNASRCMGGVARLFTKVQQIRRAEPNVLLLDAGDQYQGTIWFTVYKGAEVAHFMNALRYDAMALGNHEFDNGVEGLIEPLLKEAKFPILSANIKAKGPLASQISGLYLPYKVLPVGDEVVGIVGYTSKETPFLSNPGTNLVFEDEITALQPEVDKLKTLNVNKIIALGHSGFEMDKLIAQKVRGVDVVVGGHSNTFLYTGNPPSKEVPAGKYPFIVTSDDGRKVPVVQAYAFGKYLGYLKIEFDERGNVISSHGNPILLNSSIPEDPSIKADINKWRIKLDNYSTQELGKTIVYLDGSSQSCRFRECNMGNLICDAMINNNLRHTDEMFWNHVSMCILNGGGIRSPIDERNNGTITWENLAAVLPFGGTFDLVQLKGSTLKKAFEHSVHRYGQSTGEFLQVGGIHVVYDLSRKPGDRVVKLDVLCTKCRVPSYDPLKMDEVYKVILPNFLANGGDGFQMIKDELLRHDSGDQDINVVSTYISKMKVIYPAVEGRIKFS
# assay.protocol: Inhibition of Ecto-5′-Nucleotidase Activity in U138 Neuroglioma Cells (Assay 2)
# Format: cell-based
# experimental.parameters: 50 μM CMP, 2 hr at 37° C., malachite green readout, read-out: Assay 2: IC50, inhibition of ecto-5′-nucleotidase activity in U138 neuroglioma cells
observable: IC50

1. CNc1nc(Cl)nc2c1ncn2[C@@H]1O[C@H](COC(C(F)(F)F)P(=O)(O)O)[C@@H](O)[C@H]1O (single isomer, unassigned) [Example 100]	< 100 nM

Inquiry: Look up IC50 for this molecule: Nc1nc(I)nc2c1ncn2[C@@H]1O[C@H](CO[C@@H](C(=O)O)P(=O)(O)O)[C@@H](O)[C@H]1O [Example 59a]
Reply text: 100 to 1000 nM

Inquiry: Look up IC50 for this molecule: CC(C)COC(=O)[C@H](OC[C@H]1O[C@@H](n2cnc3c(N)nc(Cl)nc32)[C@H](O)[C@@H]1O)P(=O)(O)O (single isomer, unassigned)
Reply text: < 100 nM

Inquiry: Look up IC50 for this molecule: Cc1nnc(C(OC[C@H]2O[C@@H](n3cnc4c(N)nc(Cl)nc43)[C@H](O)[C@@H]2O)P(=O)(O)O)o1 (single isomer, unassigned) [Example 21a]
Reply text: > 1000 nM

Inquiry: Look up IC50 for this molecule: "Nc1nc(Cl)nc2c1ncn2[C@@H]1O[C@H](COC(Cc2ccc(Cl)cc2)(C(=O)O)C(=O)O)[C@@H](O)[C@H]1O"
Reply text: < 100 nM

Inquiry: Look up IC50 for this molecule: CCOC(=O)[C@H](OC[C@H]1O[C@@H](n2cnc3c(N)nc(F)nc32)[C@H](O)[C@@H]1O)P(=O)(O)O (single isomer, unassigned) [Example 52a]
Reply text: > 1000 nM
